I'd appreciate it if you could supply DC50 values for the items below.
Biological target: ER (Homo sapiens (Human), UniProt P03372)
Sequence (P03372 whole entry): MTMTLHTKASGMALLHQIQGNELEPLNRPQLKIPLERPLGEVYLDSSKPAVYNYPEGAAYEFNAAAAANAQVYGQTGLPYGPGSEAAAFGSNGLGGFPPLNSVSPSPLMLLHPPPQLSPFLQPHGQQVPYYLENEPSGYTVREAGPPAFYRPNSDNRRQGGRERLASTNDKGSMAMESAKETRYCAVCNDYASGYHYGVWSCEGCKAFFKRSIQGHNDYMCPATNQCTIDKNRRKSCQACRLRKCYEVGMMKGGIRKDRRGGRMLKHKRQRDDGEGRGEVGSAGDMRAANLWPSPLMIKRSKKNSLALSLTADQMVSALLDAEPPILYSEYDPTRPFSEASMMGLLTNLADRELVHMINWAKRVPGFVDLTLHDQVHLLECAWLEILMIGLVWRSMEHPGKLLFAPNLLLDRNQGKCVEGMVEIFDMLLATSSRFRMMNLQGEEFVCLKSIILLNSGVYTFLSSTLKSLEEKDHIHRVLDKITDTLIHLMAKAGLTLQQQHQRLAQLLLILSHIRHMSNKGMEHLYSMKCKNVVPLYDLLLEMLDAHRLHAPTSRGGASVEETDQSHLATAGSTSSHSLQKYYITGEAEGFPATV
Test: In-cell western (ICW) ER degradation assay in T47D cells
Format: cell-based
Settings: ER degradation, 16 hrs

Worked examples follow.
compound	DC50
O=C1CC[C@@H](N2Cc3cc4c(cc3C2=O)OC[C@H]2CN(CC3CCC5(CC3)CN(c3ccc([C@H]6c7ccc(O)cc7OC[C@H]6c6ccccc6)cc3)C5)CCN42)C(=O)N1 (single isomer, unassigned)	1 to 10 nM
O=C1CCC(N2Cc3cc4c(cc3C2=O)CN(C(=O)C2CCN(C3CCN(c5ccc([C@H]6c7ccc(O)cc7OC[C@H]6c6ccccc6)cc5)CC3)CC2)C4)C(=O)N1 (single isomer, unassigned)	10 to 100 nM
O=C1CC[C@@H](N2Cc3cc4c(cc3C2=O)OC[C@H]2CN(CC3COC5(CCN(c6ccc(C7c8ccc(O)cc8OCC7c7ccccc7)cc6)CC5)C3)CCN42)C(=O)N1 (stereo in doubt)	< 1 nM

Now let's try a different one.
For the compound O=C1CC[C@@H](Nc2ccc(C3CCN(C[C@@H]4COC5(CCN(c6ccc([C@@H]7c8ccc(O)cc8OC[C@@H]7c7ccccc7)cc6)CC5)C4)CC3)c(F)c2)C(=O)N1 (single isomer, unassigned) , report DC50.
< 1 nM
